tested on: adult male Wistar rats; assay: Combined test in rats: tryptamine (TRY) test; type: in vivo; conditions: Rattus norvegicus, 1.5 h; protection from tryptamine-induced bilateral tonic seizures; compound subcutaneously or orally; 40 mg/kg tryptamine i.v. at 90 minutes; read-out: Combined test in rats; ED₅₀ in mg/kg (TRY)-convulsions
Just a reminder that ties go to criterion not met: only ED50 strictly below 5 mg/kg counts as criterion met.

Task item: Say whether its ED50 is strictly beneath 5 mg/kg. Entry: COc1ccc(Cn2nc(C3CCN(CCc4c(C)nc5n(c4=O)CCS5)CC3)c3ccc(F)cc32)cc1
Reply: criterion not met

Task item: Say whether its ED50 is strictly beneath 5 mg/kg. Entry: Cc1nc2n(c(=O)c1CCN1CCC(c3n[nH]c4cc(F)ccc34)CC1)CCCC2
Reply: criterion met

Task item: Say whether its ED50 is strictly beneath 5 mg/kg. Entry: COc1ccc2c(C3CCN(CCc4c(C)nc5sccn5c4=O)CC3)n[nH]c2c1
Reply: criterion not met

Task item: Say whether its ED50 is strictly beneath 5 mg/kg. Entry: Cc1nc2n(c(=O)c1CCN1CCC(c3nn(C)c4cc(F)ccc34)CC1)CCS2
Reply: criterion met

Task item: Say whether its ED50 is strictly beneath 5 mg/kg. Entry: Cc1nc2sccn2c(=O)c1CCN1CCC(c2nn(C)c3cc(F)ccc23)CC1
Reply: criterion met

Task item: Say whether its ED50 is strictly beneath 5 mg/kg. Entry: Cc1nc2ccccn2c(=O)c1CCN1CCC(c2nn(C)c3cc(F)ccc23)CC1
Reply: criterion met

Task item: Say whether its ED50 is strictly beneath 5 mg/kg. Entry: Cc1nc2scc(C)n2c(=O)c1CCN1CCC(c2nn(-c3ccc(F)cc3)c3cc(F)ccc23)CC1
Reply: criterion not met

Task item: Say whether its ED50 is strictly beneath 5 mg/kg. Entry: Cc1nc2scc(C)n2c(=O)c1CCN1CCC(c2nn(C)c3cc(F)ccc23)CC1
Reply: criterion met

* * *

tested on: adult male Wistar rats; test: Combined test in rats: tryptamine (TRY) test; format: in vivo; details: Rattus norvegicus, 1.5 h; protection from tryptamine-induced bilateral tonic seizures; compound subcutaneously or orally; 40 mg/kg tryptamine i.v. at 90 minutes; read-out: Combined test in rats; ED₅₀ in mg/kg (TRY)-convulsions
Measured ED50, listed per entry.
The reply should read as a number followed by its unit.

Recorded results for 4 compounds are shown here.
Cc1nc2ccccn2c(=O)c1CCN1CCC(c2nn(-c3ccc(F)cc3)c3cc(F)ccc23)CC1; 5 mg/kg
Cc1nc2sccn2c(=O)c1CCN1CCC(c2n[nH]c3cc(F)ccc23)CC1; 5 mg/kg
Cc1nc2c(C)cccn2c(=O)c1CCN1CCC(c2nn(Cc3ccccc3)c3cc(F)ccc23)CC1; 5 mg/kg
Cc1nc2sccn2c(=O)c1CCN1CCC(c2nn(-c3ccc(F)cc3)c3cc(F)ccc23)CC1; 5 mg/kg

Task item: Check the records and state ED50 for Cc1nc2n(c(=O)c1CCN1CCC(c3n[nH]c4cc(F)ccc34)CC1)CCS2
Reply: 5 mg/kg

# credit: patent EP0357134B1
